Kindly state pIC50 for each of the entries shown.
assay-system: human TrkA (Homo sapiens)
Sequence (P04629 33-796): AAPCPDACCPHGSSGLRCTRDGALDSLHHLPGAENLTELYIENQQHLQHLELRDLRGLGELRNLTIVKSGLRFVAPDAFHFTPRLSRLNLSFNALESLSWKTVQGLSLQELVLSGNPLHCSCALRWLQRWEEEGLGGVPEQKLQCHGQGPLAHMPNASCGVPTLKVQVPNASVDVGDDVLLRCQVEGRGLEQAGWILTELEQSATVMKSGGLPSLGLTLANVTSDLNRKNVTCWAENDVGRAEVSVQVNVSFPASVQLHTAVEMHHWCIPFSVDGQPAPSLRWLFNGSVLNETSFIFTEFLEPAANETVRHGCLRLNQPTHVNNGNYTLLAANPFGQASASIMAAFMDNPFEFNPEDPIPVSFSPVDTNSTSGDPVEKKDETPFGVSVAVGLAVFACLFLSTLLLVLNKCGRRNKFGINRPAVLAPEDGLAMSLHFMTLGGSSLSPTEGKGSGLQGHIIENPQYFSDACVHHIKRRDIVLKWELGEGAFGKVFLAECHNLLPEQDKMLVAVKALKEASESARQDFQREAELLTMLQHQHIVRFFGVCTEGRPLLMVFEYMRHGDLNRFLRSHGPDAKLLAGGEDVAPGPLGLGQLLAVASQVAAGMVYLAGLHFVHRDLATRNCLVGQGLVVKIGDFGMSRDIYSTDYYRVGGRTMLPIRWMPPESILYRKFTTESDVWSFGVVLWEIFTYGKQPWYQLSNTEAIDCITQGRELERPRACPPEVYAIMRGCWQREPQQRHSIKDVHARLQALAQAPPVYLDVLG
protocol-description: TrkA Cell Based Phosphorylation Assay
recorded-conditions: Recombinant AD293 cells overexpressing human TrkA; TrkA Y490 phosphorylation upon 6 nM NGF stimulation; Phospho-TrkA (Tyr490) sandwich ELISA
pIC50: −log10 of the molar value.

Prompt: I am curious: what pIC50 value has been reported for COCCN1C[C@@H](NC(=O)Nc2cc3ccccc3nc2-c2ccccc2)[C@H](c2ccccc2)C1 ?
Response: > 7.00

Prompt: Which value of pIC50 has been reported for COCCN1C[C@@H](NC(=O)Nc2c(-c3ccccc3)nc(C(=O)O)c3cc(F)ccc23)[C@H](c2ccccc2)C1 in the records?
Response: 6.00 to 7.00

Prompt: Fill in the blank: the reported pIC50 of COCCN1C[C@@H](NC(=O)Nc2c(-c3ccccc3)nc(N3CCOCC3)c3ccccc23)[C@H](c2ccccc2)C1 is ____.
Response: > 7.00

Prompt: Name the recorded pIC50 for COCCN1C[C@@H](NC(=O)Nc2cc3cc(OC)c(OC)cc3nc2-c2ccccc2)[C@H](c2cccc(F)c2)C1 .
Response: > 7.00

Prompt: // lookup pIC50 for COCCN1C[C@@H](NC(=O)Nc2cc3c(OC)cccc3nc2-c2ccccc2)[C@H](c2ccccc2)C1
Response: 6.00 to 7.00

Prompt: Reported pIC50, compound COCCN1C[C@@H](NC(=O)Nc2cc3c(nc2-c2ccccc2)CCCC3)[C@H](c2ccccc2)C1 : ____
Response: > 7.00

Prompt: Tell me the measured pIC50 of COCCN1C[C@@H](NC(=O)Nc2c(-c3ccccc3)ncc3ccccc23)[C@H](c2ccccc2)C1 , please.
Response: > 7.00

Prompt: Item COCCN1C[C@@H](NC(=O)Nc2cc3ccccc3nc2-c2ccncc2)[C@H](c2ccccc2)C1 has what recorded pIC50?
Response: < 6.00

Prompt: Name the recorded pIC50 for COCCN1C[C@@H](NC(=O)Nc2cccc3oc4ccccc4c23)[C@H](c2ccccc2)C1 .
Response: 6.00 to 7.00

Prompt: I would be grateful if you could share the reported pIC50 for COCCN1C[C@@H](NC(=O)Nc2c(C(C)(C)C)nc(-c3cnn(C)c3)c3ccccc23)[C@H](c2ccccc2)C1 .
Response: 6.00 to 7.00
